Molecular target: T1, recombinantly expressed human NOGO-A (hNOGO) (human, UniProt Q9NQC3 586-785, limits assumed)
T1 sequence (looked up): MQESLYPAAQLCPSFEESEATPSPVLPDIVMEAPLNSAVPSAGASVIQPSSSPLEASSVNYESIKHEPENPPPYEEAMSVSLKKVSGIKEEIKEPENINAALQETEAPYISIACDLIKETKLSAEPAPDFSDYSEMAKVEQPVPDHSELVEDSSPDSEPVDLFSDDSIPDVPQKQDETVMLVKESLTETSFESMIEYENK
Assay: SPR, Biacore3000; hNOGO amine-coupled to CM5 chip, antibody in solution
Please go through the items and note down their log10(koff).
In our notation, the value equals log10 of koff in s⁻¹.

Would you please look over these solved cases?
[[record]]
binder = "Anti-NOGO antibody 15C3/3 (mouse monoclonal) (antibody, V domains shown, Mouse hybridoma antibody; also called Mouse 15C3) VH: QVQLQQSGAELVKPGASVKISCKASGYAFSSYWMNWVKQRPGKGLEWIGQIYPGDGDTNYNGKFKGKATLTADKSSSTAYMQLSSLTSEDSAVYFCAVRFDYWGQGTTLTVSS VL: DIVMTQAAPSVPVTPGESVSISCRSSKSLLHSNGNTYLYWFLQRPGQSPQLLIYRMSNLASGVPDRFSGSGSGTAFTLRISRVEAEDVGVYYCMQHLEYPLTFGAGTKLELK"
recorded_value = -3.08

[[record]]
binder = "Humanised anti-NOGO antibody H1L11 (antibody, V domains shown, It was expressed transiently in CHO cells; also called H1l L11) VH: QVQLVQSGAEVKKPGASVKVSCKASGYTFTSYWMHWVRQAPGQGLEWMGNINPSNGGTNYNEKFKSRVTMTRDTSTSTVYMELSSLRSEDTAVYYCELGQGYWGQGTTVTVSS VL: DIVITQSPLSLPVTLGQPASISCRSSKSLLYKDGKTYLNWFQQRPGQSPQLLIYLMSTRASGVPDRFSGGGSGTDFTLKISRVEAEDVGVYYCQQLVEYPLTFGQGTKLEIK"
recorded_value = -1.67

[[record]]
binder = "Anti-NOGO antibody 2C4/1 (mouse monoclonal) (antibody, V domains shown, Mouse hybridoma antibody; also called Mouse 2C4) VH: EVQLVESGGGLVKPGGSLKLSCAASGFTFSCYAMSWVRQTPEKRLEWVASISDGGSYTYYPDNVKGRFTISRDNAKNNLYLQMSHLKSEDTAMYYCAKELLFDYWGQGTTLTVSS VL: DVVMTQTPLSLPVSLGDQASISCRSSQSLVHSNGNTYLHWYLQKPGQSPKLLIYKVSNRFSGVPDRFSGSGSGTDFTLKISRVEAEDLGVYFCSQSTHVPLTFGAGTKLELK"
recorded_value = -3.19

[[record]]
binder = "Anti-NOGO antibody 2A10/3 (mouse monoclonal) (antibody, V domains shown, Mouse hybridoma antibody; also called Mouse 2A10; 2A10-BR) VH: QVQLQQPGTELVKPGASVKLSCKASGYTFTSYWMHWVKQRPGQGLEWIGNINPSNGGTNYNEKFKSKATLTVDKSSSTAYMQLSSLTSEDSAVYYCELGQGYWGQGTTLTVSS VL: DIVITQDELSNPVTSGESVSISCRSSKSLLYKDGKTYLNWFLQRPGQSPQLLIYLMSTRASGVSDRFSGSGSGTDFTLEISRVKAEDVGVYYCQQLVEYPLTFGAGTKLELK"
recorded_value = -2.74


# input for lookup
Suppose we examine the binder Chimeric 2A10 (HcLc) (antibody, human IgG1, kappa, V domains shown, Murine 2A10 V regions on human IgG1/k wild type C regions; also called chimaera of 2A10; the chimera) VH: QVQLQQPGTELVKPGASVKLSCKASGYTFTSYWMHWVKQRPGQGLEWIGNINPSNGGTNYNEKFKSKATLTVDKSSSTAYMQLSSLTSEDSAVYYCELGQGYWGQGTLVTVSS VL: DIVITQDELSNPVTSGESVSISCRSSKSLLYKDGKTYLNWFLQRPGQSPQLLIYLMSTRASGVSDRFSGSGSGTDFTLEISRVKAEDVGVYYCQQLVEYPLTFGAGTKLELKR ; what log10(koff) value has been reported?
-2.60
